- Target Of Assay: Sphingosine kinase 2 (Mus musculus)
- Assay Info: Inhibition of mouse recombinant SPHK2 expressed in baculovirus-infected Sf9 cells
I'd appreciate it if you could supply pKi values for the items below.
Formally, pKi is defined as -log10 of the concentration c, with c in mol/L.

Request: Please report the recorded pKi for CCCCCCCCCCCCc1ccc(C(=O)NC2(C(=N)N)CCC2)cc1 .
Response: 5.30

Request: Repeat with N=C(N)[C@@H]1CCCN1C(=O)CCCCCCCCCCOCC1CCCCC1
Response: 5.10

Request: Repeat with CCCCCCCCCCCOc1ccc(C(=O)NC2(C(=N)N)CC2)cc1
Response: 5.00

Request: Repeat with N=C(N)[C@@H]1CCCN1C(=O)c1ccc(CCCCCCCOCC2CCCCC2)cc1
Response: 5.52

Request: Repeat with N=C(N)[C@@H]1CCCN1C(=O)c1ccc(-c2nc(-c3cccc(CCC4CCCCC4)c3)cs2)cc1
Response: 5.22

----------
- Target Of Assay: Sphingosine kinase 1 (Homo sapiens, UniProt Q9NYA1)
- Sequence (Q9NYA1 whole entry): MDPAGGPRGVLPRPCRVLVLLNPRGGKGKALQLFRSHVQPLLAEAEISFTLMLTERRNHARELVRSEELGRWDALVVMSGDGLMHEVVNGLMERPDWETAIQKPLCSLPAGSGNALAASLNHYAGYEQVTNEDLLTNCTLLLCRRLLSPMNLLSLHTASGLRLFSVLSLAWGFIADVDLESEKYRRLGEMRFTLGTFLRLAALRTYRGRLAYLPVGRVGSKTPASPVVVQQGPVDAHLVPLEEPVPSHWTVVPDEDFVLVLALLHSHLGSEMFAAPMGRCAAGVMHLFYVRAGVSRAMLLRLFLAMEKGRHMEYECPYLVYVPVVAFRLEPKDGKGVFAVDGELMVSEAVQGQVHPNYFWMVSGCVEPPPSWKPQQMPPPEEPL
- Assay Info: biochemical
- Description: Inhibition of human recombinant SPHK1 expressed in baculovirus-infected Sf9 cells
Observed Property: pKi
Formally, pKi is defined as -log10 of the concentration c, with c in mol/L.

Request: So what pKi did N=C(N)C1(C(=O)Nc2ccc(CCCCCCCOCC34CC5CC(CC(C5)C3)C4)cc2)CC1 get with Sphingosine kinase 1 (Homo sapiens, UniProt Q9NYA1)?
Response: 5.82

Request: Repeat with N=C(N)C1(C(=O)Nc2ccc(CCCCCCCCc3ccccc3)cc2)CC1
Response: 5.89

Request: Repeat with CCCCCCCCCCCCCCCCCCNC(=O)C1(C(=N)N)CC1
Response: 5.05

Request: Repeat with N=C(N)C1(C(=O)Nc2ccc(CCCCCCCOCc3ccccc3)cc2)CC1
Response: 5.30

Request: Repeat with N=C(N)[C@@H]1CCCN1C(=O)c1ccc(-c2nc(-c3cccc(CCC4CCCCC4)c3)c[nH]2)cc1
Response: 5.70

----------
- Target Of Assay: Sphingosine kinase 1 (Homo sapiens, UniProt Q9NYA1)
- Assay Info: biochemical
I'd appreciate it if you could supply pKi values for the items below.
Formally, pKi is defined as -log10 of the concentration c, with c in mol/L.

Request: Please report the recorded pKi for N=C(N)C1(NC(=O)CCCCCCCCCCOCC2CCCCC2)CC1 .
Response: 7.02

Request: Repeat with N=C(N)C1(NC(=O)c2ccc(CCCCCCCOCC3CCCC3)cc2)CC1
Response: 6.77

Request: Repeat with N=C(N)[C@@H]1CCCN1C(=O)c1ccc(-c2nc(-c3cccc(CCC4CCCCC4)c3)cs2)cc1
Response: 6.96

Request: Repeat with N=C(N)C1(NC(=O)c2ccc(CCCCCCCOCC3CCCCC3)cc2)CC1
Response: 6.89

Request: Repeat with N=C(N)C1(C(=O)NCCCCCCCCCCOCC2CCCC2)CC1
Response: 6.35

----------
I'd appreciate it if you could supply log10(Ki) values for the items below.
- Target Of Assay: Sphingosine kinase 1 (Homo sapiens, UniProt Q9NYA1)
- Assay Info: biochemical
For clarity, the numbers are log10 values of Ki expressed in nM.

Request: Please report the recorded log10(Ki) for N=C(N)[C@@H]1CCCN1C(=O)CCCCCCCCCCOCC1CCCCC1 .
Response: 2.11

Request: Repeat with N=C(N)C1(C(=O)Nc2ccc(CCCCCCOCC3CCCCC3)cc2)CC1
Response: 2.59

Request: Repeat with CCCCCCCCCCCCCCNC(=O)C1(C(=N)N)CC1
Response: 3.78

Request: Repeat with N=C(N)C1(C(=O)Nc2ccc(CCCCCCCOCC3CCCCC3)cc2)CC1
Response: 2.38

Request: Repeat with CCCCOCCCCCCCc1ccc(C(=O)NC2(C(=N)N)CC2)cc1
Response: 3.11

Request: Repeat with CCCCCCCCCCCCCCCCNC(=O)C1(C(=N)N)CC1
Response: 3.73

Request: Repeat with CCCCCCCCCCCCc1ccc(C(=O)NC2(C(=N)N)CCC2)cc1
Response: 3.20

Request: Repeat with N=C(N)C1(C(=O)Nc2ccc(CCCCCCCCCc3ccccc3)cc2)CC1
Response: 2.70

Request: Repeat with CCCCCCCCCCCOc1ccc(C(=O)NC2(C(=N)N)CC2)cc1
Response: 3.60

Request: Repeat with N=C(N)C1(C(=O)Nc2ccc(CCCCCCCCOCC3CCCCC3)cc2)CC1
Response: 2.90

Request: Repeat with N=C(N)[C@@H]1CCCN1C(=O)c1ccc(CCCCCCCCCC2CCCCC2)cc1
Response: 2.00

----------
- Target Of Assay: Sphingosine kinase 2 (Mus musculus, UniProt Q9JIA7)
- Sequence (Q9JIA7 whole entry): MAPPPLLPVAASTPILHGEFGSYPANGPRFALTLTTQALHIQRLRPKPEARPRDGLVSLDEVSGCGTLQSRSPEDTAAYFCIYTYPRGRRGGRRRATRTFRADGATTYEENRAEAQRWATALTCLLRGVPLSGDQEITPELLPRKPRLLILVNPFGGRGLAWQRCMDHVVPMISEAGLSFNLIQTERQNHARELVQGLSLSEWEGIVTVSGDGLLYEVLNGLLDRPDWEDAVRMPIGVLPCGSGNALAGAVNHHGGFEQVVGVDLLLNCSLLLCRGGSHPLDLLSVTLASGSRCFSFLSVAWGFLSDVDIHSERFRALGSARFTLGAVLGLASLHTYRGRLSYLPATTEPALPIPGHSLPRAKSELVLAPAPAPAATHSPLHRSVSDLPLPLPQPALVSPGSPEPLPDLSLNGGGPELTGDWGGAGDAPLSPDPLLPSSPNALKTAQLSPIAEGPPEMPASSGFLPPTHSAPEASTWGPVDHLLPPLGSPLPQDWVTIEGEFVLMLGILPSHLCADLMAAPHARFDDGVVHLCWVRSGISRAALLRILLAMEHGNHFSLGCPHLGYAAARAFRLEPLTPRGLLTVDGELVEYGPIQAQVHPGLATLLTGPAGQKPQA
- Assay Info: Inhibition of mouse recombinant SPHK2 expressed in baculovirus-infected Sf9 cells
Observed Property: Ki (µM)
Return type: number; implicit unit µM.

Request: Please report the recorded Ki for N=C(N)C1(C(=O)Nc2ccc(CCCCCCCOCC34CC5CC(CC(C5)C3)C4)cc2)CC1 .
Response: 4.6

Request: Repeat with N=C(N)[C@@H]1CCCN1C(=O)c1ccc(CCCCCCCCCC2CCCCC2)cc1
Response: 5.3

Request: Repeat with N=C(N)C1(NC(=O)c2ccc(CCCCCCCOCC3CCCCC3)cc2)CC1
Response: 15

Request: Repeat with N=C(N)C1(NC(=O)c2ccc(CCCCCCCOCC3CCCC3)cc2)CC1
Response: 18

Request: Repeat with N=C(N)[C@@H]1CCCN1C(=O)c1ccc(-c2nc(-c3cccc(CCC4CCCCC4)c3)co2)cc1
Response: 4.2

Request: Repeat with CCCCCCCCc1ccc(NC(=O)[C@@H](N)CCO)cc1
Response: 31

Request: Repeat with Oc1ccc(Nc2nc(-c3ccc(Cl)cc3)cs2)cc1
Response: 33

Request: Repeat with CCCCOCCCCCCCc1ccc(C(=O)NC2(C(=N)N)CC2)cc1
Response: 40

Request: Repeat with N=C(N)C1(C(=O)NCCCCCCCCCCOCC2CCCC2)CC1
Response: 25

Request: Repeat with N=C(N)C1(C(=O)NCCCCCCCCCCOCC2CCCCC2)CC1
Response: 26
